Assay: Stability in human liver microsomes
Details: human, microsomes
Protocol: Human liver microsomes were prepared by Absorption Systems. A reaction mixture, minus NADPH, was prepared as described below. […] In parallel, a 2000 alpha test compound. […] Test compound samples were analyzed by orbitrap. […] Intrinsic clearance (CLint) was calculated based upon CLint=k/P, where k is the elimination rate constant and P is the protein concentration in the incubation.
MEASUREMENT_TYPE: remaining at 10 min, 1 μM (%)
Give your result in % as a bare value.

stdin: Tell me the measured remaining at 10 min, 1 μM of C[C@]12CC[C@H]3[C@@H](CCC4=CC(=O)CC[C@@]43C)[C@@H]1CC[C@@H]2O [Testosterone, testosterone] , please.
stdout: 53
